Entries and their measured viability, T/C follow.
Tested on: PANC-1 complex spheroid growth, percent test/control
Assay: Anticancer human tumor PANC-1 cell line growth inhibition [Asc];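 also: spheroids exposed to agents for 7 days; percent viability relative to DMSO vehicle wells taken as 100%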
Details: second compound 0.3 µM; first compound 1 µM; stronger effect = lower value
Measurement Name: viability, T/C (%)

O=C(c1cc(Cc2n[nH]c(=O)c3ccccc23)ccc1F)N1CCN(C(=O)C2CC2)CC1 + CCN1C(C(=O)NC23CCC(C(=O)O)(CC2)CC3)C(c2cccc(Cl)c2F)C2(C(=O)Nc3cc(Cl)ccc32)C12CCCCC2; 103
C=C(F)C(=O)N1CCN(c2nc(OCC3CCCN3C)nc3c2CCN(c2cccc4cccc(Cl)c24)C3)CC1CC#N (stereo unspecified) + CCN1C(C(=O)NC23CCC(C(=O)O)(CC2)CC3)C(c2cccc(Cl)c2F)C2(C(=O)Nc3cc(Cl)ccc32)C12CCCCC2; 108
O=C(c1ccc(F)c(F)c1Nc1ccc(I)cc1F)N1CC(O)([C@@H]2CCCCN2)C1 + CCN1C(C(=O)NC23CCC(C(=O)O)(CC2)CC3)C(c2cccc(Cl)c2F)C2(C(=O)Nc3cc(Cl)ccc32)C12CCCCC2; 93.8
C=CC(=O)N1CCN(c2nc(=O)n(-c3c(C)ccnc3C(C)C)c3nc(-c4c(O)cccc4F)c(F)cc23)C(C)C1 (stereo unspecified) + CCN1C(C(=O)NC23CCC(C(=O)O)(CC2)CC3)C(c2cccc(Cl)c2F)C2(C(=O)Nc3cc(Cl)ccc32)C12CCCCC2; 110
CCN1CCN(Cc2ccc(Nc3ncc(F)c(-c4cc(F)c5nc(C)n(C(C)C)c5c4)n3)nc2)CC1 + CCN1C(C(=O)NC23CCC(C(=O)O)(CC2)CC3)C(c2cccc(Cl)c2F)C2(C(=O)Nc3cc(Cl)ccc32)C12CCCCC2; 150
C#Cc1c(F)ccc2cc(O)cc(-c3ncc4c(N5CC6CCC(C5)N6)nc(OCC56CCCN5CC(F)C6)nc4c3F)c12 (stereo unspecified) + CCN1C(C(=O)NC23CCC(C(=O)O)(CC2)CC3)C(c2cccc(Cl)c2F)C2(C(=O)Nc3cc(Cl)ccc32)C12CCCCC2; 93.2

###

# viability, T/C values compiled below
Tested on: PANC-1 complex spheroid growth, percent test/control
Assay: Anticancer human tumor PANC-1 cell line growth inhibition [Asc];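 also: spheroids exposed to agents for 7 days; percent viability relative to DMSO vehicle wells taken as 100%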
Details: second compound 0.03 µM; first compound 0.1 µM; stronger effect = lower value
Measurement Name: viability, T/C (%)

O=C(c1cc(Cc2n[nH]c(=O)c3ccccc23)ccc1F)N1CCN(C(=O)C2CC2)CC1 + CCN1C(C(=O)NC23CCC(C(=O)O)(CC2)CC3)C(c2cccc(Cl)c2F)C2(C(=O)Nc3cc(Cl)ccc32)C12CCCCC2; 98.7
CCN1CCN(Cc2ccc(Nc3ncc(F)c(-c4cc(F)c5nc(C)n(C(C)C)c5c4)n3)nc2)CC1 + CCN1C(C(=O)NC23CCC(C(=O)O)(CC2)CC3)C(c2cccc(Cl)c2F)C2(C(=O)Nc3cc(Cl)ccc32)C12CCCCC2; 114
CNC(C)C(=O)NC1CN(S(=O)(=O)c2cccc(S(=O)(=O)N3CCC4CCC(C(=O)NC(c5ccccc5)c5ccccc5)N4C(=O)C(NC(=O)C(C)NC)C3)c2)CCC2CCC(C(=O)NC(c3ccccc3)c3ccccc3)N2C1=O (centres undefined) + CCN1C(C(=O)NC23CCC(C(=O)O)(CC2)CC3)C(c2cccc(Cl)c2F)C2(C(=O)Nc3cc(Cl)ccc32)C12CCCCC2; 93.8
NC1CCC(NC2CC2c2ccccc2)CC1 (centres undefined) + CCN1C(C(=O)NC23CCC(C(=O)O)(CC2)CC3)C(c2cccc(Cl)c2F)C2(C(=O)Nc3cc(Cl)ccc32)C12CCCCC2; 90.1
